target: EGFR Kinase (Homo sapiens, UniProt P00533); assay: EGFR inhibitory activity test (HTRF kinEASE STK S1 kinase assay); format: biochemical; details: replicate wells, read-out: IC50(nM), Inhibitory Activity of Compounds on EGFR Kinase
Sequence (P00533 25-1210): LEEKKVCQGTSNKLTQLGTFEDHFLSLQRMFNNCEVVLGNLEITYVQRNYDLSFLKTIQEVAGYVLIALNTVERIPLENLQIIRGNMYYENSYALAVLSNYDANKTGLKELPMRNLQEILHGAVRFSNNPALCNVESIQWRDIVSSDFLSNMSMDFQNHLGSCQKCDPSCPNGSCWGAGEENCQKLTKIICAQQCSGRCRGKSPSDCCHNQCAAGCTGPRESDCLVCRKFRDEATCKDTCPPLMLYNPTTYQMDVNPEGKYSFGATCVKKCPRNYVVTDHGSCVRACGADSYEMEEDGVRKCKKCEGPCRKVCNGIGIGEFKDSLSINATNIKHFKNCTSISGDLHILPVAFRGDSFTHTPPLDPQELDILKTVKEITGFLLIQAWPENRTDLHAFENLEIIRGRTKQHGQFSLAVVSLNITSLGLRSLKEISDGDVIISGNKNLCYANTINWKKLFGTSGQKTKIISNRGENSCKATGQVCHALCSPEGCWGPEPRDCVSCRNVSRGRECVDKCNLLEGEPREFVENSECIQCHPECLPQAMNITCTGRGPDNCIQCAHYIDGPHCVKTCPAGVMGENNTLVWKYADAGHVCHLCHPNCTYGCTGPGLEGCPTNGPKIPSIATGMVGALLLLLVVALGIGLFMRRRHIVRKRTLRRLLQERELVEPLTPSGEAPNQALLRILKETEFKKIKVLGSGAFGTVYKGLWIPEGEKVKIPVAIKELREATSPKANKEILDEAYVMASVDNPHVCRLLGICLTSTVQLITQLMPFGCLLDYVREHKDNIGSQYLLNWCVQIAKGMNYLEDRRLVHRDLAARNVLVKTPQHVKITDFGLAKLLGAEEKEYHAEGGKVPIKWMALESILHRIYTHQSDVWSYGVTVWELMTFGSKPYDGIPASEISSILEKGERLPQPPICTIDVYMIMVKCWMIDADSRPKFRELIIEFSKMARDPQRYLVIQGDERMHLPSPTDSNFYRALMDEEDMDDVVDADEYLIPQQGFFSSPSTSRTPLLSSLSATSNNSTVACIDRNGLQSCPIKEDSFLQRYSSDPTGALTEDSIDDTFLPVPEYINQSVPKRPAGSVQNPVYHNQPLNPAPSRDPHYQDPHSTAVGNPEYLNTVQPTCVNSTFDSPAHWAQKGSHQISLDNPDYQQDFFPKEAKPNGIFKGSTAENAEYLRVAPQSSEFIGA
attribute-measured: IC50

| molecule | IC50 |
| --- | --- |
| COc1cc2ncnc(Nc3ccc(F)c(Cl)c3)c2cc1OCCCN1CCC2CCNCC2C1 (stereo not shown) | 0.001 to 0.1 nM |
| COc1cc2ncnc(Nc3ccc(F)c(Cl)c3)c2cc1OCCCN1CCC2NCCC2C1 (stereo not shown) | 0.001 to 0.1 nM |

For the record COc1cc2ncnc(Nc3ccc(F)c(Cl)c3)c2cc1OCCCN1CC2CCOCC2C1 (stereo not shown) , what value of IC50 is listed for EGFR Kinase (Homo sapiens, UniProt P00533)?
1 to 10 nM

Do the same for COc1cc2ncnc(Nc3ccc(F)c(Cl)c3)c2cc1OCCCN1CC2COCC2C1 (stereo not shown) please
0.001 to 0.1 nM

Do the same for `COc1cc2ncnc(Nc3ccc(F)c(Cl)c3)c2cc1OCCCN1CCc2nn(C)c(C)c2C1` please
1 to 10 nM

Do the same for CCN1CCCC2CN(CCCOc3cc4c(Nc5ccc(F)c(Cl)c5)ncnc4cc3OC)CC21 (stereo not shown) please
0.001 to 0.1 nM

Do the same for COc1cc2ncnc(Nc3ccc(F)c(Cl)c3)c2cc1OCCCN1CCC2OCCOC2C1 (stereo not shown) please
1 to 10 nM

Do the same for C#Cc1cc(Nc2ncnc3cc(OC)c(OCCCN4CC5CNCC5C4)cc23)ccc1F (stereo not shown) please
0.101 to 1 nM

Do the same for COc1cc2ncnc(Nc3ccc(F)c(Cl)c3)c2cc1OCCCN1CC2CCCC2C1 (stereo not shown) please
0.001 to 0.1 nM

Do the same for `COc1cc2ncnc(Nc3ccc(F)c(Cl)c3)c2cc1OCCCN1C[C@@H]2C[C@]2(O)C1` please
0.001 to 0.1 nM

Do the same for `C#Cc1cc(Nc2ncnc3cc(OC)c(OCCCN4CCn5cnnc5C4)cc23)ccc1F` please
0.101 to 1 nM

Do the same for COc1cc2ncnc(Nc3ccc(F)c(Cl)c3)c2cc1OCCCN1CC2C(C1)C2N(C)C (stereo not shown) please
1 to 10 nM

Do the same for COc1cc2ncnc(Nc3ccc(F)c(Cl)c3)c2cc1OCCCN1CC2CCCN(C)C2C1 (stereo not shown) please
0.001 to 0.1 nM

Do the same for `COc1cc2ncnc(Nc3ccc(F)c(Cl)c3)c2cc1OCCCN1CCn2c(nnc2C(F)(F)F)C1` please
1 to 10 nM

Do the same for COc1cc2ncnc(Nc3ccc(F)c(Cl)c3)c2cc1OCCCN1CCCC2OCCCC21 (stereo not shown) please
0.001 to 0.1 nM

Do the same for COc1cc2ncnc(Nc3ccc(F)c(Cl)c3)c2cc1OCCCN1CCC2CN(C(C)=O)CC21 (stereo not shown) please
1 to 10 nM

Do the same for COc1cc2ncnc(Nc3ccc(F)c(Cl)c3)c2cc1OCCCN1CCC2CCN(C)C2C1 (stereo not shown) please
0.001 to 0.1 nM

Do the same for COc1cc2ncnc(Nc3ccc(F)c(Cl)c3)c2cc1OCCCN1CCC2CCNC2C1 (stereo not shown) please
0.001 to 0.1 nM
